Each entry below carries its recorded growth AUC.
- Tested on: Bacteroides clarus
- Test Description: growth AUC relative to DMSO control (median of replicates) (fraction); higher = more growth (less inhibition), active = hit call of the paper
- Condition Parameters: 20 µM; 24 h

Compound	growth AUC
CCOC(=O)C(C)Oc1ccc(Oc2cnc3cc(Cl)ccc3n2)cc1 (stereo not given)	0.953
CON(C(=O)c1cc(C)oc1C)C1CCCCC1	1
COc1c(I)cc(C#N)cc1I	0.932
Cc1cccc(C)c1N(C(=O)CCl)C1CCOC1=O (stereo not given)	0.993
COc1cc(OC)nc(Sc2cccc3c2C(=O)OC3C)n1 (stereo not given)	0.989
